Test system: PAK1
Conditions used: concentration: 1 μM, replicates: in singlicate; n = 1;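 note: KINOMEscan kinase panel screen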
We label by threshold. Values of %Inh strictly beneath 4% are 1. Values of 4% and up are 0.

>  <Molecule>
Cc1nnc(-c2ccc(C)c(-c3ccc(C(=O)O)cc3)c2)o1

>  <Tested on>
PAK1

>  <Classification>
0

$$$$
>  <Molecule>
CCC(=O)c1c(-c2ccccc2)c2cc(Cl)ccc2c(=O)n1Cc1ccc(C(=O)O)cc1

>  <Tested on>
PAK1

>  <Classification>
1

$$$$
>  <Molecule>
Nc1ncnc2c1ncn2-c1cccc2ccccc12

>  <Tested on>
PAK1

>  <Classification>
1

$$$$
>  <Molecule>
CCC(=O)c1c(-c2ccccc2)c2cc(Cl)ccc2c(=O)n1Cc1cc(S(C)(=O)=O)n(CCC(C)(C)O)n1

>  <Tested on>
PAK1

>  <Classification>
0

$$$$
>  <Molecule>
COc1cc2ncn(-c3cc(OCCCc4ccccc4)c(C(N)=O)s3)c2cc1OC

>  <Tested on>
PAK1

>  <Classification>
0

$$$$
>  <Molecule>
COc1ccc(Nc2nccc(N3CCC(NS(=O)(=O)c4ccc(NC(C)=O)cc4)C3)n2)cc1 (centres unmarked)

>  <Tested on>
PAK1

>  <Classification>
0

$$$$
>  <Molecule>
COC(=O)c1c(-c2ccccc2)c2cc(C)ccc2c(=O)n1Cc1ccccc1

>  <Tested on>
PAK1

>  <Classification>
0

$$$$
>  <Molecule>
Cc1nnc(-c2ccc3ncn(-c4ccc(S(C)=O)cc4)c3c2)o1 (centres unmarked)

>  <Tested on>
PAK1

>  <Classification>
0

$$$$
>  <Molecule>
CCC(=O)c1c(-c2ccccc2)c2cc(Cl)ccc2c(=O)n1Cc1cc(S(C)(=O)=O)n(CC(F)F)n1

>  <Tested on>
PAK1

>  <Classification>
1

$$$$
>  <Molecule>
COc1ccc(CNC(=O)NC2CCN(c3ccnc(Nc4ccc(F)cc4)n3)C2)cc1 (centres unmarked)

>  <Tested on>
PAK1

>  <Classification>
1

$$$$

* * *

System: EPHA7
Conditions used: concentration: 1 μM, replicates: in singlicate; n = 1
Please assign 0 (no) whenever %Inh is at or above 5%, and 1 (yes) whenever it is below.

>  <Compound>
Nc1nc(N)c2nc(-c3ccccc3)[nH]c2n1 [SKF-12778]

>  <Classification>
1 (yes)

$$$$
>  <Compound>
COc1ccc(-c2cc3c(C)nc(N)nc3n([C@H]3CC[C@H](O)CC3)c2=O)cn1

>  <Classification>
1 (yes)

$$$$
>  <Compound>
Nc1nccc2scc(-c3ccc4c(c3)CCN4C(=O)Cc3ccccc3)c12 [GSK2576924]

>  <Classification>
1 (yes)

$$$$
>  <Compound>
COC(=O)c1c(-c2ccccc2)c2cc(C)ccc2c(=O)n1Cc1ccccc1

>  <Classification>
1 (yes)

$$$$
>  <Compound>
Cl.c1ccc(Cn2cnc3cc(Nc4ncnc5ccccc45)ccc32)cc1 [GW272142]

>  <Classification>
1 (yes)

$$$$
>  <Compound>
O=c1cc(N2CCOCC2)nc2n(Cc3ccc(F)c(Cl)c3)ccn12 [GSK2297099]

>  <Classification>
0 (no)

$$$$
>  <Compound>
O=C(Nc1n[nH]c2nc(-c3ccccc3)c(Cl)cc12)C1CC1 [SB-734909]

>  <Classification>
0 (no)

$$$$
>  <Compound>
Cc1ccc(-c2ccc3c(ccc4sc5c(c43)NC[C@@H](C)N=C5N(C)C)n2)cn1

>  <Classification>
1 (yes)

$$$$
>  <Compound>
COc1cc(OC)cc(-c2cc3cnc(N)nc3nc2NC(=O)NC(C)(C)C)c1

>  <Classification>
1 (yes)

$$$$
>  <Compound>
Nc1ncnc2c1ncn2-c1cccc(F)c1 [SKF-97560]

>  <Classification>
0 (no)

$$$$
>  <Compound>
COc1cc2ncn(-c3cc(OCc4ccncc4Br)c(C(N)=O)s3)c2cc1OC [GW854278]

>  <Classification>
1 (yes)

$$$$
>  <Compound>
COc1ccc(Nc2nccc(N3CCC(NS(=O)(=O)c4ccc(NC(C)=O)cc4)C3)n2)cc1 (stereo not drawn) [GSK1379729]

>  <Classification>
0 (no)

$$$$
>  <Compound>
CCCC(=O)Nc1n[nH]c2ncc(-c3cccc4ccccc34)cc12 [SB-642057]

>  <Classification>
1 (yes)

$$$$
>  <Compound>
C[C@@H]1CC[C@H](C(=O)NC2CCCCC2)CN1c1cc(-c2ccc3c(N)n[nH]c3c2)nc(N)n1 [GSK2291363]

>  <Classification>
0 (no)

$$$$

* * *

Tested on: MYO3B
Conditions used: concentration: 1 μM, replicates: in singlicate; n = 1
Endpoint label: %Inh (%)

>  <Substance smiles>
Cc1cc(Nc2nc(-c3cccc(C)n3)nc3ccccc23)ccn1

>  <Reported value>
0

$$$$
>  <Substance smiles>
COc1cc2ncn(-c3cc(OCc4ccc(S(C)(=O)=O)cc4)c(C(N)=O)s3)c2cc1OC

>  <Reported value>
0

$$$$
>  <Substance smiles>
Cc1nc(N(C)[C@H]2CN(C(=O)CC#N)CC[C@H]2C)c2cc[nH]c2n1

>  <Reported value>
9

$$$$
>  <Substance smiles>
CCC(=O)c1c(-c2ccccc2)c2cc(Cl)ccc2c(=O)n1Cc1ccc(C(=O)O)cc1

>  <Reported value>
3

$$$$
>  <Substance smiles>
CCn1c(-c2nonc2N)nc2ccccc21

>  <Reported value>
18

$$$$

* * *

System: SRPK3
Conditions used: concentration: 1 μM, replicates: in singlicate; n = 1
Classify as follows. Reported %Inh greater than or equal to 2%: Yes. Reported %Inh below: No.

>  <Compound>
Cc1ccccc1COc1cc(-n2cnc3cc(Cl)ccc32)sc1C(N)=O

>  <Classification>
Yes

$$$$
>  <Compound>
COC(=O)c1c(-c2ccccc2)c2cc(Br)ccc2c(=O)n1Cc1ccc(NC(=O)CCC(=O)O)cc1

>  <Classification>
Yes

$$$$
>  <Compound>
CCCC(=O)Nc1n[nH]c2ncc(-c3cccc4ccccc34)cc12

>  <Classification>
No

$$$$
>  <Compound>
Nc1ncnc2c1ncn2-c1ccc(Cl)cc1

>  <Classification>
No

$$$$
>  <Compound>
COC(=O)c1c(-c2ccccc2)c2cc(C)ccc2c(=O)n1Cc1ccccc1

>  <Classification>
No

$$$$
>  <Compound>
COc1ccc(-n2cnc3c(N)ncnc32)cc1

>  <Classification>
Yes

$$$$
>  <Compound>
Nc1n[nH]c2ncc(-c3ccccc3)cc12

>  <Classification>
Yes

$$$$
>  <Compound>
CCS(=O)(=O)c1ccc(OC)c(Nc2ncc(-c3ccc(F)cc3)o2)c1.Cl

>  <Classification>
No

$$$$
>  <Compound>
COc1cc2nccc(Nc3cccc(Oc4ccccc4)c3)c2cc1OC.Cl

>  <Classification>
No

$$$$
>  <Compound>
COc1cccc(-n2cnc3c(N)ncnc32)c1

>  <Classification>
No

$$$$
>  <Compound>
Cc1nn2c(=O)cc(N3CCOCC3)nc2n1Cc1cccc(Cl)c1Cl

>  <Classification>
No

$$$$
>  <Compound>
CCC(=O)c1c(-c2ccccc2)c2cc(Cl)ccc2c(=O)n1Cc1cc(S(C)(=O)=O)n(CC(N)=O)n1

>  <Classification>
No

$$$$
>  <Compound>
Cn1c(=O)c(F)c(Nc2ccc(I)cc2F)c2c(=O)n(OC[C@H](O)CO)cnc21

>  <Classification>
Yes

$$$$
>  <Compound>
CC(C)(C)c1ccc(C(=O)Nc2cn3cc(-c4ccccc4)ccc3n2)cc1

>  <Classification>
No

$$$$
>  <Compound>
CCC(=O)c1c(-c2ccccc2)c2cc(Cl)ccc2c(=O)n1Cc1cc(S(C)(=O)=O)n(CCC(C)(C)O)n1

>  <Classification>
Yes

$$$$
>  <Compound>
COc1cc(Nc2nccc(N3CCC(NC(=O)C(C)c4ccc(Cl)cc4)C3)n2)cc(OC)c1OC (centres unmarked)

>  <Classification>
Yes

$$$$

* * *

Tested on: PCTK2
Construct: gene CDK17
Conditions used: concentration: 1 μM, replicates: in singlicate; n = 1
Recorded measurements of %Inh, one per entry

>  <Compound>
Cc1ccccc1COc1cc(-n2cnc3cc(Cl)ccc32)sc1C(N)=O

>  <%Inh [%]>
0

$$$$
>  <Compound>
Cl.NS(=O)(=O)c1cccc(Nc2cc(-c3ccc(F)cc3)n[nH]2)c1

>  <%Inh [%]>
13

$$$$
>  <Compound>
Cc1ccc(Oc2ccc(Nc3ncnc4cc[nH]c34)cc2C)cn1

>  <%Inh [%]>
8

$$$$
>  <Compound>
Nc1ncnc2c1ncn2-c1cccc2ccccc12

>  <%Inh [%]>
100

$$$$
>  <Compound>
CCn1c(-c2nonc2N)nc2ccccc21

>  <%Inh [%]>
0

$$$$
>  <Compound>
Nc1ncnc2c1ncn2-c1cccc(F)c1

>  <%Inh [%]>
1

$$$$
>  <Compound>
O=C1NC(=O)C(c2ccccc2)=C1Nc1cccc(O)c1

>  <%Inh [%]>
6

$$$$
>  <Compound>
COC(=O)c1c(-c2ccccc2)c2cc(Br)ccc2c(=O)n1Cc1ccc(S(C)(=O)=O)cc1

>  <%Inh [%]>
5

$$$$
>  <Compound>
Cc1c(Cn2c(C)nn3c(=O)cc(N4CCO[C@H](C)C4)nc23)cccc1C(F)(F)F

>  <%Inh [%]>
0

$$$$
>  <Compound>
Nc1nc(N)c2nc(-c3ccccc3)[nH]c2n1

>  <%Inh [%]>
0

$$$$
>  <Compound>
FC(F)(F)c1ccc(-c2ncn(CCCN3CCOCC3)c2-c2ccncc2)cc1

>  <%Inh [%]>
0

$$$$
>  <Compound>
COc1cc2ncn(-c3cc(OCc4ccncc4)c(C(N)=O)s3)c2cc1OC

>  <%Inh [%]>
0

$$$$
>  <Compound>
Cc1nnc(-c2ccc(C)c(-c3ccc(C(=O)O)cc3)c2)o1

>  <%Inh [%]>
0

$$$$
>  <Compound>
Cc1ccc(-c2ccc3c(ccc4sc5c(c43)NC[C@@H](C)N=C5N(C)C)n2)cn1

>  <%Inh [%]>
0

$$$$
>  <Compound>
Cc1cccc(-c2nc(Nc3ccc4c(cnn4C)c3)c3ccccc3n2)n1

>  <%Inh [%]>
0

$$$$
>  <Compound>
COC(=O)c1c(-c2ccccc2)c2cc(Br)ccc2c(=O)n1Cc1ccc(NC(=O)CCC(=O)O)cc1

>  <%Inh [%]>
7

$$$$
>  <Compound>
COc1ccc(-c2cc3c(C)nc(N)nc3n([C@H]3CC[C@H](O)CC3)c2=O)cn1

>  <%Inh [%]>
0

$$$$
>  <Compound>
CCC(=O)c1c(-c2ccccc2)c2cc(Cl)ccc2c(=O)n1Cc1cc(S(C)(=O)=O)n(CC(F)F)n1

>  <%Inh [%]>
4

$$$$
>  <Compound>
Cc1cccc(-c2cc(-c3c[nH]nc3-c3ccccn3)ccn2)c1

>  <%Inh [%]>
0

$$$$
>  <Compound>
Nc1nccc2scc(-c3ccc4c(c3)CCN4C(=O)Cc3ccccc3)c12

>  <%Inh [%]>
9

$$$$
>  <Compound>
O=C(NCc1cccs1)c1cc(C(=O)c2c(Cl)cccc2Cl)c[nH]1

>  <%Inh [%]>
0

$$$$
>  <Compound>
COc1cc2nccc(Nc3cccc(Oc4ccccc4)c3)c2cc1OC.Cl

>  <%Inh [%]>
0

$$$$
>  <Compound>
Cc1nnc(-c2ccc3ncn(-c4ccc(S(C)=O)cc4)c3c2)o1 (stereo not shown)

>  <%Inh [%]>
0

$$$$
>  <Compound>
COc1cc(Nc2nccc(N3CCC(NC(=O)C(C)c4ccc(Cl)cc4)C3)n2)cc(OC)c1OC (stereo not shown)

>  <%Inh [%]>
0

$$$$
>  <Compound>
CC(C)(C)c1ccc(C(=O)Nc2cn3cc(-c4ccccc4)ccc3n2)cc1

>  <%Inh [%]>
0

$$$$
>  <Compound>
COc1cc2ncn(-c3cc(OCCCc4ccccc4)c(C(N)=O)s3)c2cc1OC

>  <%Inh [%]>
0

$$$$
>  <Compound>
COc1cc(Nc2ccnc3ccc(C(F)(F)F)cc23)cc(OC)c1OC

>  <%Inh [%]>
0

$$$$
>  <Compound>
COc1ccc(-n2cnc3c(N)ncnc32)cc1

>  <%Inh [%]>
0

$$$$
